system: Erk phosphorylation in Panc1 (G12D) cells; assay: In-Cell Western Erk phosphorylation; assay type: cell-based; details: EC50, one hour treatment; read-out: In-Cell Western Erk phosporylation Panc1 (G12D)
assay-readout: EC50 (µM)
Give bare numbers, in µM.

Please review the entries below; each comes with its answer.
Cc1nc(C)c(C(=O)Nc2nc(-c3ccc4c(c3)CCC(=O)N4Cc3ccccc3)cs2)s1 [Compound 4888] | 4
CCc1nc(C)c(C(=O)Nc2nc(-c3ccc4c(c3)CCC(=O)N4)cs2)s1 [Compound 4891] | 2

Batch lookup, EC50 per entry.
1. COCc1nc(C)c(C(=O)Nc2nc(-c3ccc4c(c3)CCC(=O)N4)cs2)s1 [Compound 4876]
2. Cc1nc(C2CCOC2)sc1C(=O)Nc1nc(-c2ccc3c(c2)CCC(=O)N3)cs1 (centres unmarked) [Compound 4892]

Result:
1: 9; 2: 5

###

Field: pIC50. Provide a value for each of the compounds that follow.
target: K-Ras wild-type (Homo sapiens); test: G-LISA Ras activation assay, 293H cells transfected with Ras wild-type, EGF-stimulated; assay type: cell-based; details: Table 5; IC50, 293H transfected, 1 hour treatment, 100 ng/ml EGF; read-out: G-LISA (wild type)
Sequence (P01116 1-188 isoform P01116-2): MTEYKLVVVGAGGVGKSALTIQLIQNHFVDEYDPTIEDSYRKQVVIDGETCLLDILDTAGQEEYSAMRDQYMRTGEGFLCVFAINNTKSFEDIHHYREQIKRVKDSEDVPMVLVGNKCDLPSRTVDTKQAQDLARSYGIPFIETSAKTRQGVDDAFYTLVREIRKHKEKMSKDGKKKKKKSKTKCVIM
Give bare numbers, as −log10 of the molar value.

CC(=O)Nc1ccc(-c2csc(NC(=O)c3sc(C)nc3C)n2)cc1 [Compound 4663] | 5.15
Cc1nc(C)c(C(=O)Nc2nc(-c3ccc4c(c3)CCC(=O)N4Cc3ccccc3)cs2)s1 [Compound 4888] | 4.95
Cc1nc(C2CC2)sc1C(=O)Nc1nc(-c2ccc3c(c2)CCC(=O)N3)cs1 [Compound 4877] | 4.80

Batch lookup, pIC50 per entry.
1. Cc1nc(C)c(C(=O)Nc2nc(-c3ccc4c(c3)CCC(=O)N4)cs2)[nH]1 [Compound 4805]
2. Cc1nc(C)c(C(=O)Nc2nc(-c3ccc4[nH]c(=O)[nH]c4c3)cs2)s1 [Compound 4562]

Result:
1: 5.15; 2: 6.30

###

molecular target: K-ras wild-type (GTP) (Homo sapiens, UniProt P01116)
Sequence (P01116 1-188 isoform P01116-2): as above
assay-readout: pKd
Give bare numbers, as −log10 of the molar value.

Query: Recall and state the measured pKd for `Cc1nc(C)c(C(=O)Nc2nc(-c3ccc4c(c3)CC(=O)N4)cs2)s1` .
Result: 5.19

###

Field: EC50. Provide a value for each of the compounds that follow.
test system: Akt phosphorylation in Panc1 (G12D) cells; experiment: In-Cell Western Akt phosphorylation; format: cell-based; settings: EC50, one hour treatment; read-out: In-Cell Western Akt phosporylation Panc1 (G12D)
Give bare numbers, in µM.

Please review the entries below; each comes with its answer.
Cc1nc(C2CC2)sc1C(=O)Nc1nc(-c2ccc3c(c2)CCC(=O)N3)cs1 | 7
Cc1ccccc1C(=O)Nc1nc(-c2ccc3c(c2)CCC(=O)N3)cs1 | 25
Cc1nc(C)c(C(=O)Nc2nc(-c3ccc4c(c3)CCC(=O)N4Cc3ccccc3)cs2)s1 | 5
CCc1nc(C)c(C(=O)Nc2nc(-c3ccc4c(c3)CCC(=O)N4)cs2)s1 | 7

Let's switch to this compound now.
Query: Recall and state the measured EC50 for `COCCOc1nc(C)c(C(=O)Nc2nc(-c3ccc4c(c3)CCC(=O)N4)cs2)s1` .
Result: 14

###

molecular target: K-ras G12V (Homo sapiens, UniProt P01116, G12V); assay: G-LISA Ras activation assay, 293H cells transfected with G12V mutant; type: cell-based; conditions: Table 5; IC50, 293H transfected, 1 hour treatment; read-out: G-LISA (G12V)
Sequence (P01116 1-188 isoform P01116-2 G12V): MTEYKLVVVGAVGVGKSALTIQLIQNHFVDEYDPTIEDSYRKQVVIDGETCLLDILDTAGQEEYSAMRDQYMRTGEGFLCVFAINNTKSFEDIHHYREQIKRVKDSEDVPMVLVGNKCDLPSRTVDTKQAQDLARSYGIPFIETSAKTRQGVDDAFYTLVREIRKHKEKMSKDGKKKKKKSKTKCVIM
assay-readout: pIC50
Answers are plain numbers, as −log10 of the molar value.

Please review the entries below; each comes with its answer.
Cc1nc(C)c(C(=O)Nc2nc(-c3ccc4c(c3)CCC(=O)N4Cc3ccccc3)cs2)s1 | 4.84
Cc1nc(C)c(C(=O)Nc2nc(-c3ccc4c(c3)CCC(=O)N4)c(C)s2)s1 | 4.77
CC(=O)Nc1ccc(-c2csc(NC(=O)c3sc(C)nc3C)n2)cc1 | 4.49
Cc1nc(C)c(C(=O)Nc2nc(-c3ccc4[nH]c(=O)[nH]c4c3)cs2)s1 | 4.42

Let's switch to this compound now.
Query: Recall and state the measured pIC50 for `Cc1nc(C2CC2)sc1C(=O)Nc1nc(-c2ccc3c(c2)CCC(=O)N3)cs1` .
Result: 5.05

###

system: Erk phosphorylation in Panc1 (G12D) cells; test: In-Cell Western Erk phosphorylation; assay type: cell-based; details: EC50, one hour treatment; read-out: In-Cell Western Erk phosporylation Panc1 (G12D)
Field: pEC50. Provide a value for each of the compounds that follow.
Numbers only, as −log10 of the molar value.

COCCOc1nc(C)c(C(=O)Nc2nc(-c3ccc4c(c3)CCC(=O)N4)cs2)s1 | 5.10

Batch lookup, pEC50 per entry.
1. Cc1nc(C)c(C(=O)Nc2nc(-c3ccc4[nH]c(=O)[nH]c4c3)cs2)s1
2. Cc1nc(C)c(CNc2nc(-c3ccc4c(c3)CCC(=O)N4)cs2)s1
3. Cc1nc(-c2ccccc2)sc1C(=O)Nc1nc(-c2ccc3c(c2)CCC(=O)N3)cs1
4. Cc1nc(C2CC2)sc1C(=O)Nc1nc(-c2ccc3c(c2)CCC(=O)N3)cs1

Result:
5.30
5.15
4.72
5.52

###

target: K-ras G12V (Homo sapiens, UniProt P01116, G12V); assay: G-LISA Ras activation assay, 293H cells transfected with G12V mutant; type: cell-based; conditions: Table 1; G-LISA, 293H transfected, 1 hour treatment; read-out: IC50 (μM) G12V
Field: IC50. Provide a value for each of the compounds that follow.
Numbers only, in µM.

Cc1nc(C)c(C(=O)Nc2nc(-c3ccc4c(c3)CCC(=O)N4Cc3ccccc3)cs2)s1 | 14.5
Cc1nc(C)c(C(=O)Nc2nc(-c3ccc4[nH]c(=O)[nH]c4c3)cs2)s1 | 38
Cc1nc(C)c(C(=O)Nc2nc(-c3ccc4c(c3)CCC(=O)N4)c(C)s2)s1 | 17
CCc1nc(C)c(C(=O)Nc2nc(-c3ccc4c(c3)CCC(=O)N4)cs2)s1 | 9.3
Cc1nc(C2CC2)sc1C(=O)Nc1nc(-c2ccc3c(c2)CCC(=O)N3)cs1 | 9

Query: Recall and state the measured IC50 for `CC(=O)Nc1ccc(-c2csc(NC(=O)c3sc(C)nc3C)n2)cc1` .
Result: 32

###

Field: IC50. Provide a value for each of the molecules that follow.
biological target: K-ras G12D (Homo sapiens, UniProt P01116, G12D); assay: G-LISA Ras activation assay, 293H cells transfected with G12D mutant; assay type: cell-based; conditions: Table 5; IC50, 293H transfected, 1 hour treatment; read-out: G-LISA (G12D)
Sequence (P01116 1-188 isoform P01116-2 G12D): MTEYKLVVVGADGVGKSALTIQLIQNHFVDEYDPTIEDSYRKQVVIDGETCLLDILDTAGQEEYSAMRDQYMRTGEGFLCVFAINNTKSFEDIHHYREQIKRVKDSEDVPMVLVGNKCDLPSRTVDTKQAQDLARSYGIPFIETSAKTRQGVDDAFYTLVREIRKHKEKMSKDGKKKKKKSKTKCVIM
One number for each entry, in µM.

Batch lookup, IC50 per entry.
1. CC(=O)N1CCCc2cc(-c3csc(NC(=O)c4sc(C)nc4C)n3)ccc21 [Compound 4686]
2. Cc1ccccc1C(=O)Nc1nc(-c2ccc3c(c2)CCC(=O)N3)cs1 [Compound 4874]
3. Cc1nc(C)c(C(=O)Nc2nc(-c3ccc4c(c3)CCC(=O)N4Cc3ccccc3)cs2)s1 [Compound 4888]
4. Cc1nc(C)c(C(=O)Nc2nc(-c3ccc4c(c3)CNC(=O)N4)cs2)s1 [Compound 4748]
5. Cc1nc(C)c(C(=O)Nc2nc(-c3ccc4c(c3)CCC(=O)N4C)cs2)s1 [Compound 4687]

Result:
1: 11; 2: 16; 3: 6; 4: 21; 5: 19

###

Field: pIC50. Provide a value for each of the compounds that follow.
molecular target: K-ras G12D (Homo sapiens, UniProt P01116, G12D); test: G-LISA Ras activation assay, 293H cells transfected with G12D mutant; type: cell-based; details: Table 5; IC50, 293H transfected, 1 hour treatment; read-out: G-LISA (G12D)
pIC50: −log10 of the molar value.

Please review the entries below; each comes with its answer.
O=C1CCc2cc(-c3csc(Nc4ncccn4)n3)ccc2N1 [Compound 4829] | < 4.60
Cc1nc(C2CC2)sc1C(=O)Nc1nc(-c2ccc3c(c2)CCC(=O)N3)cs1 [Compound 4877] | 5.22
O=C1CCc2cc(-c3csc(NC(=O)c4cnc(C5CC5)s4)n3)ccc2N1 [Compound 4683] | 4.92

Batch lookup, pIC50 per entry.
1. O=C1CCc2cc(-c3csc(NC(=O)c4scnc4C4CC4)n3)ccc2N1 [Compound 4735]
2. CCc1ncsc1C(=O)Nc1nc(-c2ccc3c(c2)CCC(=O)N3)cs1 [Compound 4747]
3. Cc1nc(-c2ccccc2)sc1C(=O)Nc1nc(-c2ccc3c(c2)CCC(=O)N3)cs1 [Compound 4878]
4. CCc1sc(NC(=O)c2sc(C)nc2C)nc1-c1ccc2c(c1)CCC(=O)N2 [Compound 4803]
5. Cc1nc(C)c(C(=O)Nc2nc(-c3cc4c5c(c3)CCN5C(=O)CC4)cs2)s1 [Compound 4749]
6. O=C1CCc2cc(-c3csc(NC(=O)c4ncccn4)n3)ccc2N1 [Compound 4826]

Result:
1. < 4.60
2. < 4.60
3. 4.72
4. 4.15
5. 4.44
6. < 4.60

Batch lookup, pIC50 per entry.
1. O=C1CCc2cc(-c3csc(NC(=O)c4ccccc4)n3)ccc2N1 [Compound 4825]
2. Cc1nc(C)c(C(=O)Nc2nc(-c3ccc4c(c3)CCC(=O)N4)cs2)[nH]1 [Compound 4805]
3. Cc1nc(C(=O)Nc2nc(-c3ccc4c(c3)CCC(=O)N4)cs2)sc1C [Compound 4828]
4. O=C1CCc2cc(-c3csc(NC(=O)c4scnc4-c4ccccc4)n3)ccc2N1 [Compound 4800]

Result:
< 4.60
3.73
< 4.60
< 4.60

Batch lookup, pIC50 per entry.
1. O=C1CCc2cc(-c3csc(NCc4ccccc4)n3)ccc2N1 [Compound 4824]
2. Cc1nc(C)c(C(=O)Nc2nc(-c3ccc4c(c3)CCC(=O)N4)cs2)s1 [Compound 4662]
3. Cc1nc(C)c(C(=O)Nc2nc(-c3ccc4[nH]c(=O)[nH]c4c3)cs2)s1 [Compound 4562]
4. Cc1nc(C)c(C(=O)Nc2nc(-c3ccc4c(c3)CCC(=O)O4)cs2)s1 [Compound 4664]
5. Cc1nc(C)c(C(=O)Nc2nc(-c3ccc4c(c3)CCC(=O)N4)c(C)s2)s1 [Compound 4802]

Result:
1. < 4.60
2. < 4.60
3. 4.89 to 5.15
4. < 4.60
5. 4.57
